# Test system: CP217
# Assay Notes: qHTS profiling for inhibitors of Plasmodium falciparum proliferation (AID 504749);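 note: 0% = DMSO vehicle and full inhibition = artemisinin control; nearly all actives have a fitted effect of over 60% in size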
# Protocol Conditions: P. falciparum in erythrocytes, SYBR Green DNA, 72 h; series mostly up to 28.7 µM
Inconclusive results are not listed. Calls of active or inactive are those of the source. Calls come from the whole dose curve; as a rule, active = well fitted inhibition curve with a large enough effect; inconclusive = small, poorly fitted or top-dose-only effect; inactive = flat fitted curve, though single readings scatter.

{"Smi": "COC1=C(OC)C(=O)C(C/C=C(\\C)CC/C=C(\\C)CC/C=C(\\C)CC/C=C(\\C)CC/C=C(\\C)CC/C=C(\\C)CC/C=C(\\C)CC/C=C(\\C)CC/C=C(\\C)CCC=C(C)C)=C(C)C1=O", "outcome": "inactive"}
{"Smi": "O=C(O)C1=C(CSc2nnnn2CS(=O)(=O)O)CS[C@@H]2[C@H](NC(=O)[C@H](O)c3ccccc3)C(=O)N12", "outcome": "inactive"}
{"Smi": "O=C(O)CCC/C=C\\C[C@@H]1[C@@H](/C=C/[C@@H](O)COc2cccc(Cl)c2)[C@H](O)C[C@@H]1O", "outcome": "inactive"}

----------
# Assay Notes: qHTS assay to identify small molecules that stimulate interleukin-8 (IL-8) secretion (AID 651758); note: 0% is about no effect
# Protocol Conditions: HTRF ratio (665/615); series mostly up to 92.2 µM
Results filed as inconclusive are left out. Activity calls are given as the source filed them. Calls come from the whole dose curve; as a rule, active = well fitted activation curve with a large enough effect in the signal ratio; inconclusive = small, poorly fitted or top-dose-only effect, or effect the other way, or a change in a side signal; inactive = flat fitted curve, though single readings scatter; the % refers to the signal ratio.

{"Smi": "OB(O)O", "outcome": "inactive"}
{"Smi": "Nc1ncnc2c1ncn2[C@H]1CC[C@@H](CO)O1", "outcome": "inactive"}
{"Smi": "C/C=C/C=C/C(=O)O", "outcome": "inactive"}

----------
# Test system: AS120
# Assay Notes: qHTS profiling for inhibitors of Plasmodium falciparum proliferation (AID 504749);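 note: 0% = DMSO vehicle and full inhibition = artemisinin control; nearly all actives have a fitted effect of over 60% in size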
# Protocol Conditions: P. falciparum in erythrocytes, SYBR Green DNA, 72 h; series mostly up to 28.7 µM
Records with an inconclusive call do not appear. The source made the active and inactive calls. Calls come from the whole dose curve; as a rule, active = well fitted inhibition curve with a large enough effect; inconclusive = small, poorly fitted or top-dose-only effect; inactive = flat fitted curve, though single readings scatter.
Log the outcome using a class from 1 (yes) for active, 0 (no) for inactive

Record excerpt, results attached:
{"Molecule": "CC(=O)NCCCS(=O)(=O)O", "Cat": "0 (no)"}
{"Molecule": "CC(C)CCC[C@@H](C)[C@H]1CC[C@H]2[C@@H]3CC=C4C[C@@H](O)CC[C@]4(C)[C@H]3CC[C@]12C", "Cat": "0 (no)"}
{"Molecule": "CCCCCCCCCCCCOCCCN", "Cat": "0 (no)"}
{"Molecule": "N=C(N)n1cccn1", "Cat": "0 (no)"}
{"Molecule": "COC(=O)C(CN)c1c[nH]c2ccc(OC)cc12 (stereo not drawn)", "Cat": "0 (no)"}
{"Molecule": "CC/C=C\\C/C=C\\C/C=C\\C/C=C\\C/C=C\\CCCC(=O)O", "Cat": "0 (no)"}

input: Assay outcome for CCCCCCCCCCCC(=O)OCC(O)CO (stereo not drawn) : what was it?
output: 0 (no)

----------
# Assay Notes: Drug repurposing screens with cells derived from glioblastoma tumor samples (AID 1345199); note: % is set by controls: 0 for no effect and ±100 for the full control effect; nearly all actives have a fitted effect of over 40% in size
# Protocol Conditions: GBM patient neurospheres viability, ATP luminescence, 48 h; at 45.9 µM (top of the series); tumour line B
# Experimental: CD133+ cells were isolated from GBM patient biopsies and cultured as neurospheres. Neurospheres from four patients were used to screen the NCATS pharmaceutical collection (NPC) library of approved drugs and bioactive compounds. […] The neurospheres were incubated with drugs for 48 hours in 1536-well format, then assayed with an ATP content cell viability assay. […]
Records with an inconclusive call do not appear.
Entries and their activity, negative = cell killing values follow.
Numbers only; they are read as %.

Example molecules with recorded activity, negative = cell killing:
{"Smi": "CO/N=C(\\C(=O)N[C@@H]1C(=O)N2C(C(=O)[O-])=C(C[n+]3cccc4c3CCC4)CS[C@H]12)c1csc(N)n1", "activity, negative = cell killing (%)": -11.7}
{"Smi": "O=C1C2CC3CC1CC(O)(C3)C2", "activity, negative = cell killing (%)": 0.0639}
{"Smi": "CCCCCCCCCCCCCCCC(=O)OC[C@@H](O)[C@H]1OC[C@H](O)[C@H]1O", "activity, negative = cell killing (%)": -4.52}

Now look at this entry.
input: For the molecule shown here, CC[C@H]1OC(=O)[C@H](C)[C@@H](O[C@H]2C[C@@](C)(OC)[C@@H](O)[C@H](C)O2)[C@H](C)[C@@H](O[C@@H]2O[C@H](C)C[C@H](N(C)C)[C@H]2O)[C@](C)(O)C[C@@H](C)CN(C)[C@H](C)[C@@H](O)[C@]1(C)O , give the reported activity, negative = cell killing.
output: -13.7

----------
# Assay Notes: qHTS assay to identify small molecule inhibitors of chordoma cells - UCH-2 (AID 1259356); note: % is set by controls: 0 for no effect and ±100 for the full control effect
# Protocol Conditions: UCH-2 chordoma viability, CellTiter-Glo ATP luminescence, 48 h; series mostly up to 46.1 µM
Inconclusive results are not listed. Activity calls are given as the source filed them. Calls follow the shape of the dose curve; as a rule, active = well fitted cell-killing curve with a large enough effect; inconclusive = small, poorly fitted or top-dose-only effect; inactive = flat fitted curve, though single readings scatter.
Experimental Readout: outcome

Example molecules with recorded outcome:
{"Molecule": "CC[C@H](C)[C@@H]1NC(=O)[C@H](Cc2ccc(O)cc2)NC(=O)[C@@H](N)CSSC[C@@H](C(=O)N2CCC[C@H]2C(=O)N[C@@H](CC(C)C)C(=O)NCC(N)=O)NC(=O)[C@H](CC(N)=O)NC(=O)[C@H](CCC(N)=O)NC1=O", "outcome": "inactive"}
{"Molecule": "Cc1ncc(C[n+]2csc(CCOP(=O)(O)OP(=O)(O)O)c2C)c(N)n1", "outcome": "inactive"}
{"Molecule": "CN1C(=O)C[C@@H](C(=O)N[C@@H](Cc2cnc[nH]2)C(=O)N2CCC[C@H]2C(N)=O)NC1=O", "outcome": "inactive"}
{"Molecule": "NCCO/C=C/[C@H](N)C(=O)O", "outcome": "inactive"}
{"Molecule": "C=CC(=O)O", "outcome": "inactive"}
{"Molecule": "CC12CCC(C[N+](C)(CCC[N+](C)(C)C)C1)C2(C)C (centres undefined)", "outcome": "inactive"}

input: For the molecule shown here, CC(C)(COP(=O)(O)OP(=O)(O)OC[C@H]1O[C@@H](n2cnc3c(N)ncnc32)[C@H](O)[C@@H]1OP(=O)(O)O)C(O)C(=O)NCCC(=O)NCCS (some centres undefined) , give the reported outcome.
output: inactive

input: For the molecule shown here, C[N+]1(C)[C@@H]2CC(OC(=O)C(O)(c3cccs3)c3cccs3)C[C@H]1[C@@H]1O[C@@H]12 (some centres undefined) , give the reported outcome.
output: inactive

input: For the molecule shown here, CCOc1cc(-c2nccc3cc(OC)c(OC)cc23)cc(OCC)c1OCC , give the reported outcome.
output: inactive

----------
# Test system: CP185
# Assay Notes: qHTS profiling for inhibitors of Plasmodium falciparum proliferation (AID 504749);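 note: 0% = DMSO vehicle and full inhibition = artemisinin control; nearly all actives have a fitted effect of over 60% in size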
# Protocol Conditions: P. falciparum in erythrocytes, SYBR Green DNA, 72 h; series mostly up to 28.7 µM
Inconclusive results are not listed. Calls of active or inactive are those of the source. Calls follow the shape of the dose curve; as a rule, active = well fitted inhibition curve with a large enough effect; inconclusive = small, poorly fitted or top-dose-only effect; inactive = flat fitted curve, though single readings scatter.
Log the outcome using a class from active, inactive

Record excerpt, results attached:
{"Compound": "NC(=O)Oc1ccc(Cc2ccccc2)cc1", "Cat": "inactive"}
{"Compound": "CC(C)CCCCCCc1ccc(O)cc1", "Cat": "inactive"}
{"Compound": "O=P(O)(O)OP(=O)(O)O", "Cat": "inactive"}
{"Compound": "OCc1ccccc1", "Cat": "inactive"}
{"Compound": "O=C1N=C2SCCN2C(=O)C1Cc1ccc(Cl)cc1 (stereo unspecified)", "Cat": "inactive"}

input: Assay outcome for Cc1c(C)c2c(c(C)c1OC(=O)CCC(=O)O)CC[C@@](C)(CCC[C@H](C)CCC[C@H](C)CCCC(C)C)O2 : what was it?
output: inactive

input: Assay outcome for CC1CC(O)CC(C)(C)C1 (stereo unspecified) : what was it?
output: inactive

input: Assay outcome for S=C=Nc1ccc(N=C=S)cc1 : what was it?
output: inactive

input: Assay outcome for O=C1CCC(c2ccccc2)(C2CCN(Cc3ccccc3)CC2)C(=O)N1 (stereo unspecified) : what was it?
output: inactive

input: Assay outcome for CC1(C)S[C@@H]2[C@H](NC(=O)C3(N)CCCCC3)C(=O)N2[C@H]1C(=O)O : what was it?
output: inactive

----------
# Assay Notes: Drug repurposing screens with cells derived from glioblastoma tumor samples (AID 1345199); note: % is set by controls: 0 for no effect and ±100 for the full control effect; nearly all actives have a fitted effect of over 40% in size
# Protocol Conditions: GBM patient neurospheres viability, ATP luminescence, 48 h; at 46.1 µM (top of the series); tumour line C
Results filed as inconclusive are left out.
Entries and their activity, negative = cell killing values follow.
Numbers only; they are read as %.

{"Compound": "NCC[C@H](O)C(=O)N[C@@H]1C[C@H](N)[C@@H](O[C@H]2O[C@H](CN)[C@@H](O)[C@H](O)[C@H]2O)[C@H](O)[C@H]1O[C@H]1O[C@H](CO)[C@@H](O)[C@H](N)[C@H]1O", "Unit Info": "%", "Endpoint Result": -4.11}
{"Compound": "CO/N=C(\\C(=O)N[C@@H]1C(=O)N2C(C(=O)O)=C(CSc3nnnn3C)CS[C@H]12)c1csc(N)n1", "Unit Info": "%", "Endpoint Result": -27.1}
{"Compound": "NC(=O)OC[C@@H]1[C@H](NC(=O)/C(=N\\OCC(=O)O)c2csc(N)n2)C(=O)N1S(=O)(=O)O", "Unit Info": "%", "Endpoint Result": -1.35}
{"Compound": "CC/C=C\\C/C=C\\C/C=C\\C/C=C\\C/C=C\\CCCC(=O)O", "Unit Info": "%", "Endpoint Result": -8.93}
{"Compound": "CCN(CC)CCOC[C@H]1O[C@@H](O)[C@H](OCCN(CC)CC)[C@@H](O)[C@@H]1O", "Unit Info": "%", "Endpoint Result": -24.8}
{"Compound": "C=CCCCCCCCCC(=O)OC", "Unit Info": "%", "Endpoint Result": 7.19}
{"Compound": "C[C@@H]1NC(=O)[C@@H](N)CNC(=O)[C@H](C2CCNC(N)=N2)NC(=O)/C(=C/NC(N)=O)NC(=O)[C@H](CNC(=O)C[C@@H](N)CCCN)NC1=O (stereo not given in full)", "Unit Info": "%", "Endpoint Result": -18.8}
{"Compound": "CC(=O)N[C@@H]([C@@H](O)[C@H](O)[C@H](O)CO)[C@@H](O)CC(=O)C(=O)O", "Unit Info": "%", "Endpoint Result": -14.1}

input: For the compound shown here, CCN(CC)CCOC(=O)c1cccnc1 , give the reported activity, negative = cell killing.
output: -9.84

input: For the compound shown here, Nc1nc(NC2CC2)c2ncn([C@@H]3C=C[C@@H](CO)C3)c2n1 , give the reported activity, negative = cell killing.
output: -22.1
